Molecular target: T1, hSIRPαV1D1 with histidine tag (human, UniProt P78324 31-147)
T1 construct: analyte of the Biacore experiments; also called first immunoglobulin-like domain of human SIRPα variant V1; not shown: histidine tag
T1 sequence (P78324 31-147 limits assumed): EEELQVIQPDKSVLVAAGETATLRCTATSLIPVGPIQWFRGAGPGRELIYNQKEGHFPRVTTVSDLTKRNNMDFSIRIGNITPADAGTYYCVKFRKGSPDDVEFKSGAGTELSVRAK
Assay: SPR (Biacore 3000), IgG captured on anti-human IgG, His-tagged D1 analyte
Experimental: Goat anti-human IgG capture antibody (Jackson Laboratories; 109-005-098) was immobilized on the four flow cells in each sensor chip using standard amine coupling chemistry. […] Generally, concentrations from about 0.1×KD to about 10×KD are appropriate for kinetic analysis. From one to six different concentrations were evaluated for each antibody:analyte interaction, depending on the comparisons to be made in an individual experiment. […]
Below, each entry is listed alongside its reported pKd.
Scale for pKd: -log10 of concentration given in mol/L; no unit attached.

Example entries and their recorded answers appear below.
Binder	pKd
Ab11_G2 (antibody, human IgG2, V domains shown, same antibody as Ab11_G4 except human IgG2 CH1, hinge, CH2 and CH3) VH: EVQLVESGGGLVKPGGSLRLSCAASGFTFSSYVMSWVRQTPGKGLEWVATISSGGTYTYYPDSVKGRFTLSRDNAKNSLYLQMNSLRAEDTAVYYCASQLTGSEFDYWGQGTTVTVSS VL: DIVITQSPASLAVSLGERATISCRASESVDSYGNSFMHWYQQKPGQPPKLLIYRASNLESGVPDRFSGSGSRTDFTLTINPLQAEDVATYYCHQSGDLPWTFGGGTKVEIKR	6.90
Ab9_G2 (antibody, human IgG2, V domains shown, same antibody as Ab9_G4 except human IgG2 CH1, hinge, CH2 and CH3) VH: EVQLVESGGGLVKPGGSLRLSCAASGFTFSSYVMSWVRQTPGKGLEWVATISSGGTYTYYPNSVKGRFTLSRDNAKNSLYLQMNSLRAEDTAVYYCVSSMTGSSFDYWGQGTTVTVSS VL: DIVITQSPASLAVSLGERATISCRASESVDSYGNSFMHWYQQKPGQPPKLLIYRASNLESGVPDRFSGSGSRTDFTLTINPLQAEDVATYYCHQSSEQLPWTFGGGTKVEIKR	7.12

Now for a further binder.
Challenge: For Ab2_G4 (antibody, human IgG4 S228P, kappa, V domains shown, human IgG4 format) VH: EVQLVESGGGLVKPGGSLRLSCAASGFTFSSYVMSWVRQTPGKGLEWVATISSGGTYTYYPDSVKGRFTLSRDNAKNSLYLQMNSLRAEDTAVYYCASSVDGSAFDYWGQGTTVTVSS VL: DIVITQSPASLAVSLGERATISCRASESVDSYGMSFMHWYQQKPGQPPKLLIYRASNLESGVPDRFSGSGSRTDFTLTINPLQAEDVATYYCHQSSENLPWTFGGGTKVEIKR , what is its reported pKd?
Response given: 6.65
